Sourced from patent US20250332149A1

Test name: Phase 1 study Part 1: plasma PK and relative bioavailability of LUM-201 tablets vs capsule
Assay type: in vivo, human
Conditions: human, plasma, po, 85.3 mg, Part 1, Treatment B (test): 85.3 mg whole capsule, oral, fasted; read-out: Cmax, Geometric Mean
Measure: Cmax (ng/mL)
Record the value in ng/mL, omitting the unit from your answer.

The value of Cmax measured for the compound CC(C)(N)C(=O)N[C@H](COCc1ccccc1)C(=O)N1CCC2(CC1)CN(S(C)(=O)=O)c1ccccc12 [LUM-201] turned out to be 93.2

====

Test name: Phase 1 study Part 2: food effect on plasma PK of LUM-201 capsule
Assay type: in vivo, human
Conditions: Part 2, Treatment A: 85.3 mg capsule, oral, fasted
Measure: λz, Geometric Mean (h⁻¹)
Record the value in h⁻¹, omitting the unit from your answer.

The value of λz, Geometric Mean measured for the molecule CC(C)(N)C(=O)N[C@H](COCc1ccccc1)C(=O)N1CCC2(CC1)CN(S(C)(=O)=O)c1ccccc12 [LUM-201] turned out to be 0.0848
